Tested on: primary rat mixed cortical cells
Test: In vitro myelination assay (MBP positive myelin strands, fold myelin pixels above background)
Format: cell-based
Conditions: Rattus norvegicus, 10.0 μM compound, relative to baseline of no added compound; read-out: Fold myelin pixels above background, 10.0 μM
fold induction at 10 µM: recorded values
assayMetric: fold induction at 10 µM

[[record]]
compound = "Cc1cc(Nc2ncn(-c3cc(C)nc(C)n3)n2)cc(N2CCN(C3COC3)CC2)c1"
assaymetric = "fold induction at 10 µM"
testvalue = "1 to 10"

[[record]]
compound = "CCc1cc(F)cc(-n2cnc(Nc3cc(C)cc(N4CCN(C)CC4)c3)n2)c1"
assaymetric = "fold induction at 10 µM"
testvalue = "100 to 1000"

[[record]]
compound = "Fc1cc(Nc2ncn(-c3ccc(F)cc3F)n2)cc(NC2CNC2)c1"
assaymetric = "fold induction at 10 µM"
testvalue = "≤ 1"

[[record]]
compound = "Cc1cc(Nc2ncn(-c3cccnc3)n2)cc(C2COC2)c1"
assaymetric = "fold induction at 10 µM"
testvalue = "100 to 1000"

[[record]]
compound = "Cc1cc(Nc2ncn(-c3ccccc3)n2)cc(N2CC(C)NCC2C)c1 (centres unmarked)"
assaymetric = "fold induction at 10 µM"
testvalue = "≤ 1"

[[record]]
compound = "Fc1cc(F)cc(-n2cnc(Nc3cc(C4=CCOCC4)nc(C4CC4)c3)n2)c1"
assaymetric = "fold induction at 10 µM"
testvalue = "10 to 100"

[[record]]
compound = "CCOc1nccc(-n2cnc(Nc3cc(C4CC4)cc(N4CCN(C5COC5)CC4)c3)n2)n1"
assaymetric = "fold induction at 10 µM"
testvalue = "100 to 1000"

[[record]]
compound = "CS(=O)(=O)c1cc(Nc2ncn(-c3cccc(F)c3)n2)cc(N2CCN(C3COC3)CC2)c1"
assaymetric = "fold induction at 10 µM"
testvalue = "≤ 1"

[[record]]
compound = "FC(F)(F)c1cc(Nc2ncn(-c3cnccn3)n2)cc(N2CCOCC2)c1"
assaymetric = "fold induction at 10 µM"
testvalue = "1 to 10"

[[record]]
compound = "COc1ccc(-n2cnc(Nc3cc(C4CC4)nc(N4CCOCC4)c3)n2)cc1OC"
assaymetric = "fold induction at 10 µM"
testvalue = "100 to 1000"

[[record]]
compound = "Cc1cc(Nc2ncn(-c3cc(F)cc(F)c3)n2)cc(N2CCN(C3CS(=O)(=O)C3)CC2)c1"
assaymetric = "fold induction at 10 µM"
testvalue = "100 to 1000"

[[record]]
compound = "Cc1cc(Nc2ncn(-c3cccnc3)n2)cc(NC2CCN(C3COC3)CC2)c1"
assaymetric = "fold induction at 10 µM"
testvalue = "10 to 100"

[[record]]
compound = "Cc1cc(Nc2ncn(-c3ccccc3)n2)cc(N2CCN(C3CC3)C(=O)C2)c1"
assaymetric = "fold induction at 10 µM"
testvalue = "1000 to 10000"

[[record]]
compound = "COCc1cc(-n2cnc(Nc3cc(C)cc(N4CCN(C5COC5)CC4)c3)n2)ncn1"
assaymetric = "fold induction at 10 µM"
testvalue = "10 to 100"

[[record]]
compound = "Clc1cc(Nc2ncn(-c3ccccc3)n2)cc(N2CCCC2)c1"
assaymetric = "fold induction at 10 µM"
testvalue = "10 to 100"

[[record]]
compound = "CN1CCN(c2cc(Nc3ncn(-c4ccncn4)n3)cc(C(F)(F)F)c2)CC1"
assaymetric = "fold induction at 10 µM"
testvalue = "100 to 1000"

[[record]]
compound = "Clc1cncc(-n2cnc(Nc3cc(C4CC4)cc(N4CCN(C5COC5)CC4)c3)n2)c1"
assaymetric = "fold induction at 10 µM"
testvalue = "10 to 100"

[[record]]
compound = "Cc1cc(Nc2ncn(-c3ccc(F)c(F)c3)n2)cc(OC2CCN(C3COC3)CC2)c1"
assaymetric = "fold induction at 10 µM"
testvalue = "100 to 1000"

[[record]]
compound = "Cc1cc(Nc2ncn(-c3ccccc3)n2)cc(C2CCN(C3CC3)CC2)c1"
assaymetric = "fold induction at 10 µM"
testvalue = "≤ 1"

[[record]]
compound = "Cc1cc(Nc2ncn(-c3ccccc3)n2)cc(N2CCN(C3COC3)CC2)c1"
assaymetric = "fold induction at 10 µM"
testvalue = "10 to 100"


* * *

Tested on: primary rat mixed cortical cells
Test: In vitro myelination assay (MBP positive myelin strands, fold myelin pixels above background)
Assay type: cell-based
Conditions: Rattus norvegicus, 1.0 μM compound, relative to baseline of no added compound; read-out: Fold myelin pixels above background
assayMetric: fold induction at 1 µM

[[record]]
compound = "FC(F)(F)c1cc(Nc2ncn(-c3cnccn3)n2)cc(N2CC3CC(C2)O3)c1 [Compound 513]"
assaymetric = "fold induction at 1 µM"
testvalue = "100 to 1000"

[[record]]
compound = "COCC1CCCN(c2cc(C)cc(Nc3ncn(-c4cc(F)cc(F)c4)n3)n2)C1 (stereo not drawn) [Compound 786]"
assaymetric = "fold induction at 1 µM"
testvalue = "1 to 10"

[[record]]
compound = "Fc1cc(F)cc(-n2cnc(Nc3cc(C4CCOCC4)nc(C4CC4)c3)n2)c1 [Compound 407]"
assaymetric = "fold induction at 1 µM"
testvalue = "1000 to 10000"

[[record]]
compound = "Cc1cc(Nc2ncn(-c3ccccc3)n2)cc(N2CCN(C3CCOC3)CC2)c1 (stereo not drawn) [Compound 434]"
assaymetric = "fold induction at 1 µM"
testvalue = "1000 to 10000"

[[record]]
compound = "Cc1cc(Nc2ncn(-c3cccc(C(F)(F)F)c3)n2)cc(OCCN2CCOCC2)c1 [Compound 575]"
assaymetric = "fold induction at 1 µM"
testvalue = "10 to 100"

[[record]]
compound = "Fc1cc(F)cc(-n2cnc(Nc3cc(N4CCN(C5COC5)CC4)cc(C(F)(F)F)n3)n2)c1 [Compound 567]"
assaymetric = "fold induction at 1 µM"
testvalue = "≤ 1"

[[record]]
compound = "Cc1cc(Nc2ncn(-c3cc(F)cc(F)c3)n2)cc([C@@]2(C)CN(C)C(=O)O2)c1 (single isomer, unassigned) [Compound 611]"
assaymetric = "fold induction at 1 µM"
testvalue = "10 to 100"

[[record]]
compound = "Cc1cc(Nc2ncn(-c3cc(F)cc(F)c3)n2)cc(N2CC(N3CCCC3=O)C2)c1 [Compound 542]"
assaymetric = "fold induction at 1 µM"
testvalue = "10 to 100"

[[record]]
compound = "Cc1cc(Nc2ncn(-c3cc(F)cc(F)c3)n2)cc(O[C@H]2CCCN(C3COC3)C2)c1 (single isomer, unassigned) [Compound 700]"
assaymetric = "fold induction at 1 µM"
testvalue = "10 to 100"


* * *

System: primary rat mixed cortical cells
Assay: In vitro myelination assay (MBP positive myelin strands, fold myelin pixels above background)
Assay type: cell-based
Conditions: Rattus norvegicus, 10.0 μM compound; read-out: Fold myelin pixels above background relative to baseline of no added compound
fold induction at 10 µM: recorded values
assayMetric: fold induction at 10 µM

[[record]]
compound = "Cc1c(Nc2ncn(-c3ccccn3)n2)cc(N2CC(N3CCOCC3)C2)cc1OC(C)C"
assaymetric = "fold induction at 10 µM"
testvalue = "10 to 100"

[[record]]
compound = "Cc1cc(Nc2ncn(-c3cc(F)cc(F)c3)n2)cc(N2CCN(CC(O)CN(C)C)CC2)c1 (centres unmarked)"
assaymetric = "fold induction at 10 µM"
testvalue = "≤ 1"

[[record]]
compound = "Cc1cc(Nc2ncn(-c3cc(F)cc(F)c3)n2)cc(N2CC(N3CCOCC3)CC2C)c1 (centres unmarked)"
assaymetric = "fold induction at 10 µM"
testvalue = "≤ 1"

[[record]]
compound = "Cc1cc(Nc2ncn(-c3cc(F)cc(F)c3)n2)cc(NC(C)C2CC2)c1 (centres unmarked)"
assaymetric = "fold induction at 10 µM"
testvalue = "≤ 1"

[[record]]
compound = "COCCCN1CCCN(c2cc(C)cc(Nc3ncn(-c4cc(F)cc(F)c4)n3)c2)CC1"
assaymetric = "fold induction at 10 µM"
testvalue = "1 to 10"

[[record]]
compound = "Cc1cc(Nc2ncn(-c3cc(F)cc(F)c3)n2)cc(N2CCN(CC3CCCO3)CC2)c1 (centres unmarked)"
assaymetric = "fold induction at 10 µM"
testvalue = "≤ 1"

[[record]]
compound = "Cc1cc(NCC2(C(=O)N(C)C)CCCC2)cc(Nc2ncn(-c3cc(F)cc(F)c3)n2)c1"
assaymetric = "fold induction at 10 µM"
testvalue = "≤ 1"

[[record]]
compound = "Cc1cc(Nc2ncn(-c3cc(F)cc(F)c3)n2)cc(N2CCC(N3CCC(O)CC3)CC2)c1"
assaymetric = "fold induction at 10 µM"
testvalue = "≤ 1"

[[record]]
compound = "Cc1cc(Nc2ncn(-c3cc(F)cc(F)c3)n2)cc(N2CCC(N(C)C)CC2)c1"
assaymetric = "fold induction at 10 µM"
testvalue = "≤ 1"

[[record]]
compound = "[2H]C1(N2CCN(c3cc(C)cc(Nc4ncn(-c5ccccc5)n4)c3)CC2)CCOC1 (centres unmarked)"
assaymetric = "fold induction at 10 µM"
testvalue = "≤ 1"

[[record]]
compound = "Cc1cc(Nc2ncn(-c3cc(F)cc(F)c3)n2)cc(NC(C)CN2CCOCC2)c1 (centres unmarked)"
assaymetric = "fold induction at 10 µM"
testvalue = "≤ 1"

[[record]]
compound = "COCCN1CCN(c2cc(C)cc(Nc3ncn(-c4cc(F)cc(F)c4)n3)c2)CC1C (centres unmarked)"
assaymetric = "fold induction at 10 µM"
testvalue = "≤ 1"

[[record]]
compound = "Cc1cc(CN2CCN(C3COC3)CC2)c(F)c(Nc2ncn(-c3ccc(F)c(F)c3)n2)c1"
assaymetric = "fold induction at 10 µM"
testvalue = "1 to 10"

[[record]]
compound = "[2H]C1([2H])N(C)C([2H])([2H])C([2H])([2H])N(c2cc(C)cc(Nc3ncn(-c4ccccc4)n3)c2)C1([2H])[2H]"
assaymetric = "fold induction at 10 µM"
testvalue = "≤ 1"

[[record]]
compound = "Cc1cc(Nc2ncn(-c3cc(F)cc(F)c3)n2)cc(N[C@H]2C[C@@H](N3CCOCC3)C2)c1 (single isomer, unassigned)"
assaymetric = "fold induction at 10 µM"
testvalue = "≤ 1"

[[record]]
compound = "Cc1cc(Nc2ncn(-c3cc(F)cc(F)c3)n2)cc(N2C[C@@H]3C[C@H]2CO3)c1"
assaymetric = "fold induction at 10 µM"
testvalue = "≤ 1"

[[record]]
compound = "FC(F)c1cc(Nc2ncn(-c3cccc(C(F)(F)F)c3)n2)nc(N2CCOCC2)c1"
assaymetric = "fold induction at 10 µM"
testvalue = "10 to 100"

